systemUnderTest: FGFR1 (UP) (Homo sapiens (Human))
Sequence (P11362 22-822): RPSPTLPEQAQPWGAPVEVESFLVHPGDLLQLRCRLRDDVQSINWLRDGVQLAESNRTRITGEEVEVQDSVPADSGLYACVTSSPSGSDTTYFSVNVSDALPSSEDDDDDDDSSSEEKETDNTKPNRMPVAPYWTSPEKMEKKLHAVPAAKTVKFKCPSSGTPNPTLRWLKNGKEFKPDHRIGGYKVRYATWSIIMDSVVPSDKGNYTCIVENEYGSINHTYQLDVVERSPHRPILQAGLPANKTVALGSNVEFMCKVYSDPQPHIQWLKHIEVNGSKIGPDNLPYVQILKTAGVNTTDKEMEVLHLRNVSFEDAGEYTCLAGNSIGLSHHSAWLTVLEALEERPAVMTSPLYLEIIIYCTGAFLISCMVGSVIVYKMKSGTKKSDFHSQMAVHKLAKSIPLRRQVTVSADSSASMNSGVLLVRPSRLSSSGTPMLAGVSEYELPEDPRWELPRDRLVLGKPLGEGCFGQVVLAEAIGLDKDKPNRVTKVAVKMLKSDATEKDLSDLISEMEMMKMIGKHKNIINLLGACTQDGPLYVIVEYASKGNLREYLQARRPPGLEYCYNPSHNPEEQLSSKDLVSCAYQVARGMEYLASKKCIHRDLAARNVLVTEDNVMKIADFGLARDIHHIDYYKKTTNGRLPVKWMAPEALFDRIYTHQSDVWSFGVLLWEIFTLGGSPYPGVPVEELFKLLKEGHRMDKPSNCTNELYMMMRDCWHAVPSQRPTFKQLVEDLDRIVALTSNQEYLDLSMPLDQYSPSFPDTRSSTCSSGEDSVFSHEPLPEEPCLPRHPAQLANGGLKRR
experimentDescription: FGFR Enzymatic Assay, FGFR1 un-phosphorylated
assayConditions: read-out: FGFR1 (UP) IC50; un-phosphorylated enzyme, ATP near or below Km
readoutName: IC50

## Task Output measured IC50 for this item: CN1CC2CCC(C1=O)N2c1ncc2[nH]nc(-c3cnn(-c4ccc(N(C)C)nc4)c3)c2n1 (stereo not shown)
## Result < 100 nM

## Task Consider the molecule CN1CC2CCC(C1=O)N2c1ncc2[nH]nc(-c3cnn(-c4ccc(C#N)cc4)c3)c2n1 (stereo not shown) and give its recorded IC50.
## Result < 100 nM

## Task Dear colleague, please send me the reported IC50 for `COC(=O)N1C[C@@H](C)N(c2ncc3[nH]nc(-c4ccc(N5CCC(O)CC5)cc4)c3n2)[C@@H](C)C1` when you can.
## Result > 2000 nM

## Task Given Cc1cc(-n2cc(-c3n[nH]c4cnc(N5C6CCC5C(=O)N(C)C6)nc34)cn2)ccn1 (stereo not shown) , respond with its IC50.
## Result < 100 nM

## Task Quote IC50 reported for `CC(C)C(=O)N1C[C@@H](C)N(c2ncc3[nH]nc(-c4ccc(N5CCN[C@H](C)C5)nc4)c3n2)[C@@H](C)C1` please.
## Result > 2000 nM

## Task Please give measured IC50 of the following entry: Cn1cc(-c2n[nH]c3cnc(N4C5CCC4c4cn[nH]c4C5)nc23)cn1 (stereo not shown)
## Result < 100 nM

## Task Look up and report measured IC50 for this entry: CN1CC2CCC(C1=O)N2c1ncc2[nH]nc(-c3cnn(-c4cccnc4)c3)c2n1 (stereo not shown)
## Result < 100 nM

## Task Consider the molecule `Cn1cc(-c2n[nH]c3cnc(N4CCN(C5CC5)C(=O)C4)nc23)cn1` . State its measured IC50.
## Result > 2000 nM

## Task Provide IC50 value for the following molecule: Cc1cc(-n2cc(-c3n[nH]c4cnc(N5C6CCC5C(=O)N(C)C6)nc34)cn2)ccc1C#N (stereo not shown)
## Result < 100 nM

## Task Given `C[C@@H]1CN(c2ccc(-c3n[nH]c4cnc(N5[C@@H]6CC[C@H]5CN(c5ccc(C#N)cc5)C6)nc34)cn2)CCN1` , respond with its IC50.
## Result > 2000 nM
